The following compounds are listed with their measured TGI values.
- Test system: 786-0 renal
- experimental.protocol: NCI tumour cell line growth inhibition, 48 h

As a guide, the following entries are already answered.
compound: COc1cc2c(Cc3cc(OCc4ccccc4)ccc3N)nccc2c(OC)c1OC
result: > 10 µM
--
compound: Cc1ccc(F)c2c(=O)cc(-c3ccccc3)[nH]c12
result: > 100 µM
--
compound: COc1ccc(N2C(=O)C3c4[nH]c5ccc(OCc6ccccc6)cc5c4C4CCC(C(C)C)CC4C3C2=O)cc1 (centres undefined)
result: > 47.6 µM
--
compound: CCCCCCC(=O)OC[n+]1cccc(-c2c(COC(=O)NC(C)C)c(COC(=O)NC(C)C)c3n2CCC3)c1
result: > 69.8 µM
--
compound: COc1nc(OC)nc(Sc2ccc(Sc3ccc(Sc4nc(OC)nc(OC)n4)cc3)cc2)n1
result: > 100 µM

Now for the compound whose TGI we want.
TGI recorded for this compound, `c1cc(C[S+]2CCCC2)oc1C[S+]1CCCC1` , is > 100 µM

* * *

This listing pairs compounds with measured TGI.
- System: NCI-H226 lung
- experimental.protocol: NCI tumour cell line growth inhibition, 48 h

Below, each entry is followed by its recorded TGI result.
compound: O=C1C(NS(=O)(=O)c2ccccc2)=C(N(Cc2ccccc2)Cc2ccccc2)C(=O)c2ccccc21
TGI: > 100 µM
//
compound: O=c1oc2c(ccc3c(O)cccc32)c2c1CCCC2
TGI: > 100 µM
//
compound: CC1(C)N=C(Oc2ccccc2)n2nccc2N1
TGI: > 100 µM
//
compound: Cc1cccc(N=C2NC(=O)C(CC(=O)Nc3ccccc3Cl)S2)c1 (configuration not stated)
TGI: > 100 µM

TGI measured on `Oc1ccccc1-n1nc2ccc3nonc3c2n1` = > 100 µM

Documented TGI of `Cc1ccc(F)c2c(=O)cc(-c3ccccc3)[nH]c12` : > 100 µM

TGI reading for `Cc1cc(Cl)ccc1NC(=O)C(=O)Cc1occc(=O)c1O` : > 100 µM

Value of TGI reported for the compound CC1=NN(c2ccccc2)C(=O)C1N=Nc1ccc(S(N)(=O)=O)cc1 (configuration not stated) is > 100 µM

Recorded result, COc1ccc(N2C(=O)C3c4[nH]c5ccc(OCc6ccccc6)cc5c4C4CCC(C(C)C)CC4C3C2=O)cc1 (configuration not stated) , TGI: 42.9 µM

Sure, the documented TGI for `c1ccc(/C(=N\Nc2ccc3ccccc3n2)c2ccccn2)cc1` is 5.16 µM

`COc1ccc2c(c1)C=C1CSCC3=Cc4cc(OC)ccc4OC13O2` yielded TGI of > 100 µM

Value of TGI reported for the compound `CN(C)N=Nc1nn(C(=O)Nc2ccc(Cc3ccccc3)cc2)c2ccccc12` is > 100 µM

GET /value?item= `CCOC(=O)c1c(NC(=O)c2ccc(Br)cc2)sc2c1CCCC2` &field=TGI returns > 100 µM

Record Nc1ccc(C2=Nc3ccccc3SC(c3ccccc3O)C2)cc1 (configuration not stated) . Reported TGI: > 100 µM

// TGI lookup, compound = `O=C1NC(SCc2ccc(F)cc2)=N/C1=C/c1cccc(OCc2ccc(Cl)cc2)c1` , result: > 100 µM

// sample O=C1OC(OC/C(Br)=C(/Br)COC2OC(=O)C(Cl)=C2Cl)C(Cl)=C1Cl (configuration not stated) , its TGI was > 70.7 µM

* * *

Catalogue of TGI readings, one per entry.
- Test system: NCI-H522 lung
- experimental.protocol: NCI tumour cell line growth inhibition, 48 h
Respond with the bare value in µM.

Some entries whose results are on file:
compound: O=C1COCCN1c1ccc(NCc2cn(C(=O)c3ccc(Cl)cc3)c3ccccc23)cc1
TGI [µM]: 35.9
--
compound: CC#Cc1c(C#CC)c(OC)c2c(c1OC)C(=O)c1ccccc1C2=O
TGI [µM]: 42.5
--
compound: C=C(CC)C[C@@H]1C[C@]2(C(=O)OC)c3[nH]c4ccccc4c3CCN2C1=O
TGI [µM]: 36.7
--
compound: COc1cc(NC(=O)c2cc(O)c(C/C=C(\C)CCC=C(C)C)c(O)c2)cc2c1O[C@]1(C)CC[C@@H](O)C(C)(C)[C@H]1C2
TGI [µM]: 6.5

We now examine a further compound.
Quick note, TGI for `CSc1nc(C)c(CCCl)c(Cl)n1` landed at 49.9

* * *

Documented TGI across a set of molecules
- Test system: MALME-3M melanoma
- experimental.protocol: NCI tumour cell line growth inhibition, 48 h

Below, 5 molecules whose answers are already recorded.
molecule: CCCCCCCCCCCCCCCCCc1nnc(N)o1
TGI: > 100 µM
--
molecule: CCc1c2c(nc3ccc(OCc4ccc(B5OC(C)(C)C(C)(C)O5)cc4)cc13)-c1cc3c(c(=O)n1C2)COC(=O)[C@]3(O)CC
TGI: 3.07 µM
--
molecule: O=C1NC(c2ccccc2)N=C2Oc3ccccc3C=C12 (stereo unspecified)
TGI: > 100 µM
--
molecule: N#CC(C(=O)CCC(=O)Nc1ccc(Cl)c(Cl)c1)c1ccc(Cl)cc1 (stereo unspecified)
TGI: > 100 µM
--
molecule: O=C(O)c1cc(=O)c2cc(C(=O)c3cccs3)c(Cl)c(Cl)c2o1
TGI: > 100 µM

So for CCCC(CCC)C(=O)OCC1(CO)C/C(=C\c2ccc(C(F)(F)F)cc2)C(=O)O1 (stereo unspecified) , the logged TGI turned out to be 31.7 µM

Noted for `Cc1ccccc1NC(=O)c1cc2ccccc2cc1O` : its TGI reads 7.29 µM

So for `CCOC(=O)c1ccc(Nc2cnc3ccc(C(F)(F)F)cc3n2)cc1` , the logged TGI turned out to be 79.2 µM

Just so you know, measured TGI for `O=C(O)CN=c1c2ccccc2n(O)c2ccccc12` came out at > 100 µM

Input `CN(C)N=Nc1nn(C(=O)Nc2ccc(Cc3ccccc3)cc2)c2ccccc12` . Output TGI: > 100 µM

Item: `O=C1Cc2ccccc2CCc2ccsc21` | TGI: > 100 µM

* * *

- Test system: 786-0 renal
- experimental.protocol: NCI tumour cell line growth inhibition, 48 h
Where a SMILES comes first, the peptide text is derived from it.
endpoint.label: TGI

compound: Cc1ccc(Nc2nc(C)c(C(/C=C/c3ccc4c(c3)OCO4)=N/Nc3ccc([N+](=O)[O-])cc3[N+](=O)[O-])s2)c([N+](=O)[O-])c1
study.system: 786-0 renal
TGI: > 100 µM
--
compound: Cc1ncc(CO)c(C=NCCCCCCN=Cc2c(CO)cnc(C)c2O)c1O
study.system: 786-0 renal
TGI: > 100 µM
--
compound: CC(=O)C1=NN(c2ccccc2)C2(S1)SC(c1ccccc1)(c1ccccc1)c1ccccc12 (stereo not given)
study.system: 786-0 renal
TGI: > 100 µM
--
compound: CC1(C)CC2(C)ON=C(c3ccccc3)N2c2ccccc2N1 (stereo not given)
study.system: 786-0 renal
TGI: 57.3 µM
--
compound: O=C1/C(=C\c2ccccc2)c2ccccc2N1/N=C\c1ccccc1
study.system: 786-0 renal
TGI: > 100 µM
--
compound: Oc1ccccc1-n1nc2ccc3nonc3c2n1
study.system: 786-0 renal
TGI: > 100 µM
--
compound: O=C1/C(=C/c2ccc(Cl)cc2)Sc2scc(-c3cccc([N+](=O)[O-])c3)[n+]21
study.system: 786-0 renal
TGI: 6.49 µM
--
compound: CC(=O)NC(CO)C(=O)NC(Cc1ccc(O)cc1)C(=O)NCC(N)=O (stereo not drawn) (Ac-Ser-Tyr-Gly-NH2; configuration not given here)
study.system: 786-0 renal
TGI: > 100 µM
--
compound: O=C(O)CN=c1c2ccccc2n(O)c2ccccc12
study.system: 786-0 renal
TGI: > 100 µM

Field: next compound
The recorded TGI with 786-0 renal for `O=[N+]([O-])c1ccc2[nH]c(O)c(N=NC(=S)Nc3ccccc3)c2c1` was 17.7 µM

* * *

- Test system: LXFL 529 NSCLC
- experimental.protocol: NCI tumour cell line growth inhibition, 48 h
endpoint.label: TGI

compound: c1ccc2c(CN3CCC(C4CCN(Cc5cccc6ccccc56)CC4)CC3)cccc2c1
TGI: 21.8 µM
--
compound: O=c1[nH]cnc2c1ncn2CCCCO
TGI: > 100 µM
--
compound: CN(CCO)/N=N/c1nc[nH]c1C(N)=O
TGI: > 100 µM
--
compound: [O-][n+]1c2cc(CN3CCOCC3)c(CN3CCOCC3)cc2[n+]([O-])c2c(O)cccc21
TGI: 7.73 µM
--
compound: N#CC(C(=O)CCC(=O)Nc1ccc(Cl)c(Cl)c1)c1ccc(Cl)cc1 (configuration not stated)
TGI: > 100 µM
--
compound: OC1c2ccccc2C2C(O)c3ccccc3C12 (configuration not stated)
TGI: > 100 µM
--
compound: Cc1cc(Cl)ccc1NC(=O)C(=O)Cc1occc(=O)c1O
TGI: > 100 µM
--
compound: O=C1c2ccccc2C(=O)c2c(O)c(NCCNCCO)cc(O)c21
TGI: 18.1 µM

Field TGI (system: LXFL 529 NSCLC) for entry O=C(O)C1CC2CC(=O)C1C2 (configuration not stated) = > 100 µM

Observed TGI on LXFL 529 NSCLC, entry COC1(Cc2ccccc2)C(=O)c2ccccc2N1C(C)=O (configuration not stated) , equals > 100 µM

The compound `COc1cc2c(Cc3cc(OCc4ccccc4)ccc3N)nccc2c(OC)c1OC` , when measured on LXFL 529 NSCLC, yielded TGI of > 10 µM

Noted TGI for `CC1=C(C(=O)Nc2ccccc2C)C(c2ccccc2C)C(C(=O)Nc2ccccc2C)=C(C)N1` , tested on LXFL 529 NSCLC: > 10 µM
